meta.source: patent US20230286975A1

# target: Human recombinant serotonin 5-HT2B receptor (Homo sapiens)
# Construct: expressed in transfected cells; host or cells: CHO-K1
# Sequence (P41595 whole entry): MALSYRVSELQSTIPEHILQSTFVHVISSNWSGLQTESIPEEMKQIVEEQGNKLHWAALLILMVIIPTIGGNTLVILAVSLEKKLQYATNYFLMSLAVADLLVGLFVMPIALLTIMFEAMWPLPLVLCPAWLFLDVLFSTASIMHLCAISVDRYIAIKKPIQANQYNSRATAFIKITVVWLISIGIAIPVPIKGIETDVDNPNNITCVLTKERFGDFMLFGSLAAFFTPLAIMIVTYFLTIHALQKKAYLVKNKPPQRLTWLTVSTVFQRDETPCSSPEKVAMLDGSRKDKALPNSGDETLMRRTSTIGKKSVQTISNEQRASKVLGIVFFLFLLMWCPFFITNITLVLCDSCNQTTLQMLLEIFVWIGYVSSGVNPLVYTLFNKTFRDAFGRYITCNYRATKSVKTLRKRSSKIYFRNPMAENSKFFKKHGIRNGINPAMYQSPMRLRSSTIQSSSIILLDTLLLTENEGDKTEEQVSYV
# assay: 5-HT2B receptor radioligand binding inhibition ([3H]LSD)
# experimental-conditions: screened at 10 μM; mean of two replicates
Quick reference: inhibition at 10 µM of the listed items.
property-name: inhibition at 10 µM (%)

compound	target	property-name	numeric-readout
CN1CC(C(=O)NCC(F)(F)F)C=C2c3cccc4[nH]cc(c34)CC21 (stereo not shown) [Compound 3, lysergic acid mono-(trifluoroethyl)amide]	Human recombinant serotonin 5-HT2B receptor (Homo sapiens)	inhibition at 10 µM	94.9
CCN(CCF)C(=O)C1C=C2c3cccc4[nH]cc(c34)CC2N(C)C1 (stereo not shown) [Compound 4, lysergic acid monofluoro diethylamide]	Human recombinant serotonin 5-HT2B receptor (Homo sapiens)	inhibition at 10 µM	97.9
CCN(CC)C(=O)C1C=C2c3cccc4[nH]cc(c34)CC2N(CCF)C1 (stereo not shown)	Human recombinant serotonin 5-HT2B receptor (Homo sapiens)	inhibition at 10 µM	90.5
CN1CC(C(=O)N2CC3(COC3)C2)C=C2c3cccc4[nH]cc(c34)CC21 (stereo not shown)	Human recombinant serotonin 5-HT2B receptor (Homo sapiens)	inhibition at 10 µM	96.8

====

# target: Human recombinant dopamine D1 receptors (Homo sapiens, UniProt P21728)
# Construct: expressed in transfected cells; host or cells: CHO
# Sequence (P21728 whole entry): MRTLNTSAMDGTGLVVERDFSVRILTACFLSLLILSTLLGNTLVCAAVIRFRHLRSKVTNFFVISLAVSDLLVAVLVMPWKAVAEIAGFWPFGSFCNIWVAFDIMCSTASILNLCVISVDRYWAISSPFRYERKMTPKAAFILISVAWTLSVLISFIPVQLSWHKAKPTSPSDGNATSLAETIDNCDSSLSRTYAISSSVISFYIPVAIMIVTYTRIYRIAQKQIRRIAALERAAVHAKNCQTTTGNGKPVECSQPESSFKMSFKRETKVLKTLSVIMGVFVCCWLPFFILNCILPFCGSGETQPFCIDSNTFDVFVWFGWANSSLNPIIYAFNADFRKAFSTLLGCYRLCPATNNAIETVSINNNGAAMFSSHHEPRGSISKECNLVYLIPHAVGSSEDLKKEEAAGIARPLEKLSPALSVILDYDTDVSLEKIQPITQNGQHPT
# assay: D1 receptor radioligand binding inhibition ([3H]SCH-23390)
# experimental-conditions: screened at 10 μM; mean of two replicates
Below, each entry is listed with its recorded inhibition at 10 µM.

compound	inhibition at 10 µM
CN1CC(C(=O)NCC(F)(F)F)C=C2c3cccc4[nH]cc(c34)CC21 (stereo not shown) [Compound 3, lysergic acid mono-(trifluoroethyl)amide]	53.8%
CCN(CCF)C(=O)C1C=C2c3cccc4[nH]cc(c34)CC2N(C)C1 (stereo not shown) [Compound 4, lysergic acid monofluoro diethylamide]	97.1%
CCN(CC)C(=O)C1C=C2c3cccc4[nH]cc(c34)CC2N(CCF)C1 (stereo not shown) [Compound 2]	4.3%
CN1CC(C(=O)N2CC3(COC3)C2)C=C2c3cccc4[nH]cc(c34)CC21 (stereo not shown) [Compound 1]	85.6%

====

# target: Human recombinant serotonin 5-HT2A receptors (Homo sapiens)
# Construct: expressed in transfected cells; host or cells: CHO-K1
# Sequence (P28223 whole entry): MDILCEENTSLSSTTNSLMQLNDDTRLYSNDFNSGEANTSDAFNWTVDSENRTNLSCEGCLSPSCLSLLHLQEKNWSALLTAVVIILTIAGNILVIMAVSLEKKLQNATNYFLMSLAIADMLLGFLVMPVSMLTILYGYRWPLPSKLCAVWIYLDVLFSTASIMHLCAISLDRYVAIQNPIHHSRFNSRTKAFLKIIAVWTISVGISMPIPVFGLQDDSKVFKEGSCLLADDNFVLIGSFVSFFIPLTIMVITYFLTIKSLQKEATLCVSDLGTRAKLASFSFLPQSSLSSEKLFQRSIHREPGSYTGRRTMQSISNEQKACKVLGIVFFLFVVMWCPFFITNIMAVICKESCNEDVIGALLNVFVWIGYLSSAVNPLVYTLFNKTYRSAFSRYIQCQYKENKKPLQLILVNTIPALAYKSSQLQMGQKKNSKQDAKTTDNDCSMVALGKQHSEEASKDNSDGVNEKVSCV
# assay: 5-HT2A receptor radioligand binding inhibition ([3H]Ketanserin)
# experimental-conditions: screened at 10 μM; mean of two replicates
property-name: inhibition at 10 µM (%)

compound	property-name	numeric-readout
CCN(CC)C(=O)C1C=C2c3cccc4[nH]cc(c34)CC2N(CCF)C1 (stereo not shown)	inhibition at 10 µM	95.7
CCN(CCF)C(=O)C1C=C2c3cccc4[nH]cc(c34)CC2N(C)C1 (stereo not shown) [Compound 4, lysergic acid monofluoro diethylamide]	inhibition at 10 µM	97.1
CN1CC(C(=O)N2CC3(COC3)C2)C=C2c3cccc4[nH]cc(c34)CC21 (stereo not shown)	inhibition at 10 µM	95.3
CN1CC(C(=O)NCC(F)(F)F)C=C2c3cccc4[nH]cc(c34)CC21 (stereo not shown) [Compound 3, lysergic acid mono-(trifluoroethyl)amide]	inhibition at 10 µM	93.1

====

# target: Human recombinant dopamine D3 receptors (Homo sapiens, UniProt P35462)
# Construct: expressed in transfected cells; host or cells: CHO
# Sequence (P35462 whole entry): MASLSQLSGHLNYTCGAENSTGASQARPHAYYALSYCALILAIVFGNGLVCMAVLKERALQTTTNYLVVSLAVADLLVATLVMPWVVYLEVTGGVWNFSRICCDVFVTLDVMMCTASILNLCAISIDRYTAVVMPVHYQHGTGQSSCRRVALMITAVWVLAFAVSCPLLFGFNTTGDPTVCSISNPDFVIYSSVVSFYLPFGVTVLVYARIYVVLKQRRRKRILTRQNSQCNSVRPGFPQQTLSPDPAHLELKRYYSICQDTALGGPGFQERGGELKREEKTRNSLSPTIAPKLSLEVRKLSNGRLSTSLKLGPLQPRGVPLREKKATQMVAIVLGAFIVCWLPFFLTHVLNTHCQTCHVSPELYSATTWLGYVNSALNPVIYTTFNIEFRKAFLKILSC
# assay: D3 receptor radioligand binding inhibition ([3H]Spiperone)
# experimental-conditions: screened at 10 μM; mean of two replicates
# Description: Four novel LSD derivatives according to the present invention (referred to as “Compound 1”, “Compound 2”, “Compound 3”, and “Compound 4”; structures depicted below) were screened at 10 μM at key receptors of interest in order to determine % binding inhibition. […] Human recombinant dopamine D3 receptors expressed in CHO cells were used in modified Tris-HCl buffer pH 7.4. […] Receptors were filtered and washed, the filters were then counted to determine [^3H]Spiperone specifically bound. […]
Measured inhibition at 10 µM by item

compound	inhibition at 10 µM
CCN(CCF)C(=O)C1C=C2c3cccc4[nH]cc(c34)CC2N(C)C1 (stereo not shown) [Compound 4, lysergic acid monofluoro diethylamide]	97.7%
CN1CC(C(=O)NCC(F)(F)F)C=C2c3cccc4[nH]cc(c34)CC21 (stereo not shown) [Compound 3, lysergic acid mono-(trifluoroethyl)amide]	94.7%
CN1CC(C(=O)N2CC3(COC3)C2)C=C2c3cccc4[nH]cc(c34)CC21 (stereo not shown) [Compound 1]	94.5%
CCN(CC)C(=O)C1C=C2c3cccc4[nH]cc(c34)CC2N(CCF)C1 (stereo not shown) [Compound 2]	14.2%
